# assay_name: Absorption maxima and absorption coefficients of photosensitizers
# Format: physicochemical
# stated_conditions: RB at 514 nm; Fl at 488 nm; MB at 661 nm; R-5-P at 488 nm; N-HPT at 351 nm
Can you tell me absorption coefficient at the laser wavelength used for the items I'm about to list?
Entry rule: numbers only, all in dm^3 mol^−1 cm^−1.

Check the records and state absorption coefficient at the laser wavelength used for On1ccccc1=S [N-HPT, N-hydroxypyridine-2-(1H)-thione]
2110

Fill in absorption coefficient at the laser wavelength used for record CN(C)c1ccc2nc3ccc(=[N+](C)C)cc-3sc2c1
15600

Supply recorded absorption coefficient at the laser wavelength used for Cc1cc2nc3c(=O)[nH]c(=O)nc-3n(C[C@H](O)[C@H](O)[C@H](O)COP(=O)(O)O)c2cc1C [R-5-P, riboflavin-5-phosphate] here.
4330

Supply absorption coefficient at the laser wavelength used value. Item: O=C([O-])c1c(Cl)c(Cl)c(Cl)c(Cl)c1-c1c2cc(I)c(=O)c(I)c-2oc2c(I)c([O-])c(I)cc12.[Na+].[Na+]
33000

---

# assay_name: Absorption maxima and absorption coefficients of photosensitizers
# Assay type: physicochemical
What absorption maximum was measured for each of the following?
Respond numerically; units are nm and should not be typed.

Could you please provide reported absorption maximum for On1ccccc1=S [N-HPT, N-hydroxypyridine-2-(1H)-thione] ? Thanks!
314

Query absorption maximum for O=C([O-])c1c(Cl)c(Cl)c(Cl)c(Cl)c1-c1c2cc(I)c(=O)c(I)c-2oc2c(I)c([O-])c(I)cc12.[Na+].[Na+] [Rose Bengal]
550

Recall and state the measured absorption maximum for CN(C)c1ccc2nc3ccc(=[N+](C)C)cc-3sc2c1 [MB, methylene blue] .
664

Note absorption maximum for the compound shown: Cc1cc2nc3c(=O)[nH]c(=O)nc-3n(C[C@H](O)[C@H](O)[C@H](O)COP(=O)(O)O)c2cc1C [R-5-P, riboflavin-5-phosphate]
445

Origin of measurements: patent US8215314B2
